Molecular target: NMDAR2A expressing HEK cell membranes (Homo sapiens, UniProt Q05586+Q12879)
Construct: expressed in transfected cells; host or cells: HEK cells (membrane extract)
Sequence (Q12879 23-1464, other chains not shown): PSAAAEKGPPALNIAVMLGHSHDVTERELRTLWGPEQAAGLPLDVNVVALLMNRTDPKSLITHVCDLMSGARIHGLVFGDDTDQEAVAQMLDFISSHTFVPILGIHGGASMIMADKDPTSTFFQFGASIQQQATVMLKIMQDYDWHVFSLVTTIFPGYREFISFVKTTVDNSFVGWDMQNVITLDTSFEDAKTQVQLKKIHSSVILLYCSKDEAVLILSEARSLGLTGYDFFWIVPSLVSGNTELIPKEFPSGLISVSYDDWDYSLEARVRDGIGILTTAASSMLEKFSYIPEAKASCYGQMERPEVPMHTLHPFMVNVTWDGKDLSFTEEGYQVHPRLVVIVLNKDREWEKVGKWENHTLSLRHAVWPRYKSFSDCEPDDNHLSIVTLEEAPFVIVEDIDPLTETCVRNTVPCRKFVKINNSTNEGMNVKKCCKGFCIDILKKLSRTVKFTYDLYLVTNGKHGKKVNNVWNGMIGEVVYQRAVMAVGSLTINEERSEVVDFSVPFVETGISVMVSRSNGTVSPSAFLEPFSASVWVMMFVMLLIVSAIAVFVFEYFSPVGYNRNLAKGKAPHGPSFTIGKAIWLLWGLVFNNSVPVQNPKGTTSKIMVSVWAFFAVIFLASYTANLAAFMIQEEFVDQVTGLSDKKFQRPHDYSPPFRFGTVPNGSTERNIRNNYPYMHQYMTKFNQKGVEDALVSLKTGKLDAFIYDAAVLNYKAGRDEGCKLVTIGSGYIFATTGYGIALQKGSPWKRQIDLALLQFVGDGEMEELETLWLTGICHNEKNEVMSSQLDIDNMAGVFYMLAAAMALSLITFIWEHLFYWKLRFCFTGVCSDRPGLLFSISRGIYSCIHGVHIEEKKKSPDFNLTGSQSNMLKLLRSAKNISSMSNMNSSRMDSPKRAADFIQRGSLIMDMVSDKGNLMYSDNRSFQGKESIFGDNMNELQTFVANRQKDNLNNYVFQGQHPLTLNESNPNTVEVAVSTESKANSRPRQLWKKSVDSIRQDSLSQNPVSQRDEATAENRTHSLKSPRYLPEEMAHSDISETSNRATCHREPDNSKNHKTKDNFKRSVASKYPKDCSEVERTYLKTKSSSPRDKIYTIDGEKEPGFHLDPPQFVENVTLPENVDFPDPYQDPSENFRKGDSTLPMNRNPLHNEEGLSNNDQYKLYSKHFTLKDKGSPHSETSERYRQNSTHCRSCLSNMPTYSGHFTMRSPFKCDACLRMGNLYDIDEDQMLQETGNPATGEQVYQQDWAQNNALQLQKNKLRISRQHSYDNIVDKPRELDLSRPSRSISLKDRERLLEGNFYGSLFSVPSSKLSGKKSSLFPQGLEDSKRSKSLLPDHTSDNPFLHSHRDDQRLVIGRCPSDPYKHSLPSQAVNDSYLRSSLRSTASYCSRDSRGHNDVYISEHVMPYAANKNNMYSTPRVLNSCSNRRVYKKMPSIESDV
Experiment: NMDAR agonist assay, [3H]MK-801 binding, NMDAR2A
Assay type: biochemical
Conditions: 50 μM glutamate; [3H]MK-801 binding; read-out: NMDAR2A: log EC50 (converted)
Protocol: (nonequilibrium conditions). The baseline value was determined from the best fit curve of the DPM values modeled using the GraphPad program and the log(agonist) vs. response(three parameters) algorithm was then subtracted from all points in the dataset.
Quantity: EC50

| Compound | Quantity | Reading |
| --- | --- | --- |
| COc1ccc(CN2CC3(CC(N[C@H](C(N)=O)[C@@H](C)O)CN3C(=O)OC(C)(C)C)C2=O)cc1 (stereo partly shown) | EC50 | > 100 nM |
| C[C@@H](O)[C@H](NCC1CCC2(CN(OCc3ccccc3)C2=O)N1C(=O)OC(C)(C)C)C(=O)N(C)C (single isomer, unassigned) [BR] | EC50 | < 1 nM |
| CNC(=O)C(NCC1CCC2(CN(OCc3ccccc3)C2=O)N1)C(C)O (single isomer, unassigned) | EC50 | < 1 nM |
| C[C@@H](O)[C@H](NC(=O)C1CCC2(CNC2=O)N1Cc1ccccc1)C(N)=O (single isomer, unassigned) | EC50 | < 1 nM |
| NC(=O)C1CCC2(CNC2=O)N1Cc1ccccc1 (single isomer, unassigned) | EC50 | < 1 nM |
| CC(O)C(C(N)=O)N(C)CC1CCC2(CN(OCc3ccccc3)C2=O)N1 (single isomer, unassigned) [CS] | EC50 | > 100 nM |
| NC(=O)C1CCC2(CN(OCc3ccccc3)C2=O)N1 (single isomer, unassigned) | EC50 | < 1 nM |
| CNC(=O)[C@@H](NCC1CCC2(CN(OCc3ccccc3)C2=O)N1C(=O)OC(C)(C)C)[C@@H](C)O (single isomer, unassigned) | EC50 | > 100 nM |
| O=C1NCC12CN(Cc1ccc(F)cc1)C1(CNC1=O)C2 (single isomer, unassigned) [DN] | EC50 | < 1 nM |
| C[C@@H](O)[C@H](NCC1CCC2(CNC2=O)N1C(=O)OC(C)(C)C)C(=O)N(C)C (single isomer, unassigned) [BT] | EC50 | < 1 nM |
| O=C1NCC12CN(Cc1ccccc1)C1(CNC1=O)C2 (single isomer, unassigned) [DP] | EC50 | < 1 nM |
| C[C@@H](O)[C@H](NCC1CCC2(CNC2=O)N1C(=O)OC(C)(C)C)C(=O)N(C)C (single isomer, unassigned) [BS] | EC50 | > 100 nM |
| O=C1NCC12CN(Cc1ccccc1)C1(CNC1=O)C2 (single isomer, unassigned) [DO] | EC50 | < 1 nM |
| CC(=O)N1C(C(=O)N[C@H](C(N)=O)[C@@H](C)O)CCC12CNC2=O (stereo partly shown) | EC50 | > 100 nM |
| NC(=O)C1CCC2(CNC2=O)N1Cc1ccc(F)cc1 (single isomer, unassigned) | EC50 | < 1 nM |
| CC(C)(C)OC(=O)N1C(C(N)=O)CCC12CN(OCc1ccccc1)C2=O (single isomer, unassigned) [BH] | EC50 | > 100 nM |
| COc1ccc(CN2CC3(CC(N[C@H](C(N)=O)[C@@H](C)O)CN3)C2=O)cc1 (stereo partly shown) | EC50 | < 1 nM |
| COc1ccc(CN2CC3(CC(N[C@H](C(=O)O)[C@@H](C)O)CN3C(=O)OC(C)(C)C)C2=O)cc1 (stereo partly shown) [CF] | EC50 | > 100 nM |
| CC(C)(C)OC(=O)N1CC2(CN(OCc3ccccc3)C2=O)CC12CN(OCc1ccccc1)C2=O (single isomer, unassigned) [AV] | EC50 | > 100 nM |
| O=C1NCC12CN(Cc1ccc(F)cc1)C1(CNC1=O)C2 (single isomer, unassigned) [DL] | EC50 | > 100 nM |
| O=C1NCC12CN(Cc1ccccc1)C1(CNC1=O)C2 (single isomer, unassigned) [DR] | EC50 | < 1 nM |
| C[C@@H](O)[C@H](NC(=O)C1CCC2(CNC2=O)N1)C(N)=O (single isomer, unassigned) | EC50 | < 1 nM |
| COc1ccc(CN2CC3(CC(N[C@H](C(=O)O)[C@@H](C)O)CN3C(=O)OC(C)(C)C)C2=O)cc1 (single isomer, unassigned) [CE] | EC50 | > 100 nM |
| CNC(=O)C(C(C)O)N(C)CC1CCC2(CN(OCc3ccccc3)C2=O)N1 (single isomer, unassigned) | EC50 | < 1 nM |
| O=C1NCC12CN(Cc1ccc(F)cc1)C1(CNC1=O)C2 (single isomer, unassigned) [DK] | EC50 | < 1 nM |
| CC(C)CN1C(C(N)=O)CCC12CNC2=O (single isomer, unassigned) | EC50 | < 1 nM |
| O=C1NCC12CN(Cc1ccccc1)C1(CNC1=O)C2 (single isomer, unassigned) [DQ] | EC50 | > 100 nM |
| O=C1NCC12CN(Cc1ccc(F)cc1)C1(CNC1=O)C2 (single isomer, unassigned) [DM] | EC50 | < 1 nM |
| CC(O)C(C(N)=O)N(C)CC1CCC2(CNC2=O)N1 (single isomer, unassigned) [CV] | EC50 | < 1 nM |
| C[C@@H](O)[C@H](NCC1CCC2(CN(OCc3ccccc3)C2=O)N1C(=O)OC(C)(C)C)C(N)=O (stereo partly shown) | EC50 | > 100 nM |
| CC(C)C(=O)N1C2(CCC13CNC3=O)CNC2=O (single isomer, unassigned) | EC50 | < 1 nM |

* * *

Quick list: CSF Cmax per entry.
Assay: Oral pharmacokinetics (plasma, brain, CSF)
Type: in vivo
Details: Sprague Dawley rats, per os, 10 mg/kg, CSF
Experimental: In another experiment, Sprague Dawley rats were dosed per os using a normal saline formulation containing 10 mg/kg of the compounds identified in the table below. Plasma, brain, and CSF samples were analyzed at various time points over a 24 hour period. The table below summarizes the results of the oral pharmacokinetics.
Quantity: CSF Cmax (ng/mL)

| Compound | Reading |
| --- | --- |
| C[C@@H](O)[C@H](NC(=O)C1CCC2(CNC2=O)N1Cc1ccccc1)C(N)=O (single isomer, unassigned) [AN] | 0 |
| CC(C)(C)OC(=O)N1C(C(N)=O)CCC12CN(OCc1ccccc1)C2=O (single isomer, unassigned) | 36.66 |
| CC(C)C(=O)N1C(C(=O)N[C@H](C(N)=O)[C@@H](C)O)CCC12CNC2=O (single isomer, unassigned) | 0 |
| C[C@@H](O)[C@H](NC(=O)C1CCC2(CNC2=O)N1)C(N)=O (single isomer, unassigned) [AQ-2] | 0 |
| C[C@@H](O)[C@H](NC(=O)C1CCC2(CNC2=O)N1Cc1ccccc1)C(N)=O (single isomer, unassigned) [AM] | 0 |
| CC(=O)N1C(C(=O)N[C@H](C(N)=O)[C@@H](C)O)CCC12CNC2=O (stereo partly shown) | 17.89 |
| C[C@@H](O)[C@@H](C(N)=O)N1CC2(CCC3(CN([C@H](C(N)=O)[C@@H](C)O)C3=O)N2C(=O)OC(C)(C)C)C1=O (stereo partly shown) | 0 |

* * *

Reported Microsomal (Rat): percent of compound remaining after 60 minutes is given for each of the following compounds.
test: Microsomal stability (Rat); format: in vitro ADME; conditions: rat microsomes
Quantity: Microsomal (Rat): percent of compound remaining after 60 minutes (%)

| Compound | Reading |
| --- | --- |
| CC(C)CN1[C@@]2(CC[C@@]13CNC3=O)CNC2=O | 100 |
| CC(C)CN1[C@]2(CC[C@]13CNC3=O)CNC2=O | 87 |
| C[C@@H](O)[C@H](NC(=O)C1CCC2(CNC2=O)N1Cc1ccccc1)C(N)=O (single isomer, unassigned) [AM] | 99 |
| C[C@@H](O)[C@@H](C(N)=O)N1CC2(CCC3(CN([C@H](C(N)=O)[C@@H](C)O)C3=O)N2C(=O)OC(C)(C)C)C1=O (some centres unmarked) | 81 |
| C[C@@H](O)[C@H](NC(=O)C1CCC2(CNC2=O)N1)C(N)=O (single isomer, unassigned) [AQ-2] | 100 |
| CC(=O)N1C(C(=O)N[C@H](C(N)=O)[C@@H](C)O)CCC12CNC2=O (some centres unmarked) | 100 |
| CN1C2(CCC13CNC3=O)CNC2=O (single isomer, unassigned) | 78 |
| CC(C)(C)OC(=O)N1C(C(N)=O)CCC12CN(OCc1ccccc1)C2=O (single isomer, unassigned) | 100 |
| C[C@@H](O)[C@H](NC(=O)C1CCC2(CNC2=O)N1)C(N)=O (single isomer, unassigned) [AQ-1] | 84 |
| CC(C)(C)OC(=O)N1CC2(CN(OCc3ccccc3)C2=O)CC12CN(OCc1ccccc1)C2=O (single isomer, unassigned) | 0 |
| O=C1NCC12CCC1(CNC1=O)N2Cc1ccccc1 (single isomer, unassigned) [AC-2] | 100 |
| O=C1NCC12CCC1(CNC1=O)N2Cc1ccccc1 (single isomer, unassigned) [AC-3] | 83 |
| CC(C)C(=O)N1C(C(=O)N[C@H](C(N)=O)[C@@H](C)O)CCC12CNC2=O (single isomer, unassigned) | 100 |
| C[C@@H](O)[C@H](NC(=O)C1CCC2(CNC2=O)N1Cc1ccccc1)C(N)=O (single isomer, unassigned) [AN] | 87 |
| O=C1NCC12CCC1(CNC1=O)N2 (single isomer, unassigned) | 100 |
| O=C1NCC12CCC1(CNC1=O)N2Cc1ccccc1 (single isomer, unassigned) [AC-1] | 100 |
| CC(C)C(=O)N1C2(CCC13CNC3=O)CNC2=O (single isomer, unassigned) | 100 |

Attribution: patent US11028095B2
